- Test system: CHO
- protocol.description: Selectivity ratio of Ki for human CB1 receptor expressed in CHO cell membranes to Ki for human CB2 receptor expressed in CHO cell membranes
- Assay type: cell-based
Field: Ratio Ki. Provide a value for each of the compounds that follow.
Numbers only.

given.smiles: CCCCCn1cc(C(=O)NC2CCCCC2)c(=O)n2nc(-c3ccccc3)nc12
observed: 75
--
given.smiles: CCCCCn1cc(C(=O)NC2CCCCC2)c(=O)n2nc(C)nc12
observed: 1
--
given.smiles: CCCCCn1cc(C(=O)NC2CCCCC2)c(=O)n2nc(-c3ccc(Cl)cc3)nc12
observed: 40

Write down the reported Ratio Ki of "CCCCCn1cc(C(=O)NC23CC4CC(CC(C4)C2)C3)c(=O)n2nc(-c3ccccc3)nc12" , test system: CHO.
146

====

pKi tested on Cannabinoid receptor 1 (Homo sapiens, UniProt P21554): recorded values
Sequence (P21554 whole entry): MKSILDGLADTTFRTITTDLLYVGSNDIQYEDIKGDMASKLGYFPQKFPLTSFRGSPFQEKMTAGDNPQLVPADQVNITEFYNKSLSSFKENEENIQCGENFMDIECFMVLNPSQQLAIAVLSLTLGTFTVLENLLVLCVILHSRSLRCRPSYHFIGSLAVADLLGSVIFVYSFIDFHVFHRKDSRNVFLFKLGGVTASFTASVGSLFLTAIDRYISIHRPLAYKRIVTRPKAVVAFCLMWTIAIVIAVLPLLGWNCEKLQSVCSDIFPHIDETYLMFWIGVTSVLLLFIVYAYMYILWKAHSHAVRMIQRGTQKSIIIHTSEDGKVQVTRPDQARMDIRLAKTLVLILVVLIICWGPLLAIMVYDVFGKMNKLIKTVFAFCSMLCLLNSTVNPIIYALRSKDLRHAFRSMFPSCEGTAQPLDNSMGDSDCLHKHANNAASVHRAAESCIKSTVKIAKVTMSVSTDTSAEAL
One number for each entry, as −log10 of the molar value.

given.smiles: CCCCCn1cc(C(=O)NC2CCCCCC2)c(=O)n2nc(-c3ccccc3)nc12
pKi: 5.61

Look at each compound and report its pKi.
1. CCCCCn1cc(C(=O)NC23CC4CC(CC(C4)C2)C3)c(=O)n2nc(-c3ccc(C)cc3)nc12
2. CCCCCn1cc(C(=O)NC23CC4CC(CC(C4)C2)C3)c(=O)n2nc(-c3ccc(Cl)cc3)nc12

1. 5.82
2. 5.28

====

- Tested on: CHO
- protocol.description: Selectivity ratio of Ki for human CB1 receptor expressed in CHO cell membranes to Ki for human CB2 receptor expressed in CHO cell membranes
- Type: cell-based
observed.property: Ratio Ki
Numbers only.

Examples with answers:
given.smiles: CCCCCn1cc(C(=O)NC23CC4CC(CC(C4)C2)C3)c(=O)n2nc(-c3ccc(Cl)cc3)nc12
target.desc: CHO
Ratio Ki: 462
--
given.smiles: CCCCCn1cc(C(=O)NC23CC4CC(CC(C4)C2)C3)c(=O)n2nc(C)nc12
target.desc: CHO
Ratio Ki: 1
--
given.smiles: CCCCCn1cc(C(=O)NC23CC4CC(CC(C4)C2)C3)c(=O)n2nc(N3CCOCC3)nc12
target.desc: CHO
Ratio Ki: 140
--
given.smiles: CCCCCn1cc(C(=O)NC2CCCCC2)c(=O)n2nc(-c3ccc(OC)cc3)nc12
target.desc: CHO
Ratio Ki: 61
--
given.smiles: CCCCCn1cc(C(=O)NC23CC4CC(CC(C4)C2)C3)c(=O)n2nc(-c3ccco3)nc12
target.desc: CHO
Ratio Ki: 26

Look at each compound and report its Ratio Ki.
1. CCCCCn1cc(C(=O)NC23CC4CC(C)(CC(C)(C4)C2)C3)c(=O)n2ncnc12
2. CCCCCn1cc(C(=O)NC23CC4CC(CC(C4)C2)C3)c(=O)n2nc(-c3ccc(OC)cc3)nc12

1: 25; 2: 79

====

- System: CHO
- protocol.description: Selectivity ratio of Ki for human CB1 receptor expressed in CHO cell membranes to Ki for human CB2 receptor expressed in CHO cell membranes
- Type: cell-based
Field: Ratio Ki. Provide a value for each of the molecules that follow.
Give bare numbers.

Examples with answers:
given.smiles: CCCCCn1cc(C(=O)NC2CCCCCC2)c(=O)n2nc(-c3ccccc3)nc12
Ratio Ki: 52
//
given.smiles: CCCCCn1cc(C(=O)NC2CCCCCC2)c(=O)n2ncnc12
Ratio Ki: 1

Could you share which Ratio Ki value was measured for "CCCCCn1cc(C(=O)NC23CC4CC(CC(C4)C2)C3)c(=O)n2ncnc12" ?
36
